- Organism: Rattus norvegicus
- Assay Overview: Inhibition of cholesterol synthesis in rat hepatic cells
- Type: functional, cell-based
pIC50 for assorted molecules
Please keep in mind that pIC50 is minus log10 of the molar concentration; only the number is needed.

Some solved entries appear below for comparison.
| Molecule | pIC50 |
| --- | --- |
| COc1cccc(C(O)c2cc(Cl)ccc2N(CC(C)(C)C)C(=O)CCC(=O)N2CCC(C(=O)O)CC2)c1OC (configuration not stated) | 5.80 |
| CC(C)(C)CN(C(=O)CCC(=O)N1CCCC(C(=O)O)C1)c1ccc(Cl)cc1[C@H](O)c1ccccc1Cl (some centres not stated) | 6.57 |
| COc1ccccc1C(O)c1cc(Cl)ccc1N(CC(C)(C)C)C(=O)CCC(=O)N1CCCC(C(=O)O)C1 (configuration not stated) | 7.08 |
| CC(C)(C)CN(C(=O)CCC(=O)N1CCC(C(=O)O)CC1)c1ccc(Cl)cc1C(O)c1cccc(F)c1Cl (configuration not stated) | 6.04 |

**Query** Give its pIC50 value. Item: CC(C)(C)CN(C(=O)CCC(=O)N1CCCC(C(=O)O)C1)c1ccc(Cl)cc1C(O)c1ccccc1F (configuration not stated)
**Result** 6.70

----------
- Assay Overview: Lipophilicity, log P of the compound
- Format: physicochemical
- Setup Conditions: octanol/water
Result Type: logP
Answer using only a numeral; do not append any unit.

Some solved entries appear below for comparison.
| Compound | logP |
| --- | --- |
| CC(C)(C)CN(C(=O)CCC(=O)N1CCCC(C(=O)O)C1)c1ccc(Cl)cc1C(O)c1ccccc1F (stereo not drawn) | 2.52 |
| CC(C)(C)CN(C(=O)CCC(=O)N1CCCC(C(=O)O)C1)c1ccc(Cl)cc1C(O)c1cc(F)ccc1Cl (stereo not drawn) | 2.8 |

**Query** Give its logP value. Item: CC(C)(C)CN(C(=O)CCC(=O)N1CCCC(C(=O)O)C1)c1ccc(Cl)cc1C(O)c1ccccc1 (stereo not drawn)
**Result** 2.42

----------
- System Tested: Squalene synthase (Homo sapiens, UniProt P37268)
- Sequence (P37268 whole entry): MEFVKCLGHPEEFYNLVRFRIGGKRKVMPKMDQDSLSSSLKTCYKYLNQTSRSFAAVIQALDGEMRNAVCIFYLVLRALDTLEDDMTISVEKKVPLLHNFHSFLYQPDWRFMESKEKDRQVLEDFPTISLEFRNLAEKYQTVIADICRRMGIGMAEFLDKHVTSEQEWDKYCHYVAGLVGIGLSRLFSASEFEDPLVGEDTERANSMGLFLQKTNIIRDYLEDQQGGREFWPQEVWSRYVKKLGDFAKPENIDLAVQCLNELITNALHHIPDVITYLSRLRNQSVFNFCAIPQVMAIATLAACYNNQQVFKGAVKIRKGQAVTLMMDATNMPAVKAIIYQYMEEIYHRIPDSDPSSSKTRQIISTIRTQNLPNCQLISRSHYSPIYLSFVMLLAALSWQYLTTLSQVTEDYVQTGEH
Result Type: IC50

**Query** Give its IC50 value. Item: CCOC(=O)C1CCCN(C(=O)CCC(=O)N(CC(C)(C)C)c2ccc(Cl)cc2C(O)c2ccccc2F)C1 (stereo unspecified)
**Result** > 600 nM

----------
- Organism: Rattus norvegicus
- Assay Overview: Inhibition of cholesterol synthesis in rat hepatic cells
- Type: functional, cell-based
Result Type: pIC50
Please keep in mind that pIC50 is minus log10 of the molar concentration; only the number is needed.

Some solved entries appear below for comparison.
| Compound | Result Type | Number |
| --- | --- | --- |
| CCOC(=O)CN1CCN(C(=O)CCC(=O)N(CC(C)(C)C)c2ccc(Cl)cc2C(O)c2ccccc2Cl)CC1 (configuration not stated) | pIC50 | 5.85 |
| CNC(=O)C1CCN(C(=O)CCC(=O)N(CC(C)(C)C)c2ccc(Cl)cc2C(O)c2ccccc2Cl)CC1 (configuration not stated) | pIC50 | 6.05 |
| CC(C)NC(=O)C1CCN(C(=O)CCC(=O)N(CC(C)(C)C)c2ccc(Cl)cc2C(O)c2ccccc2Cl)CC1 (configuration not stated) | pIC50 | 5.80 |
| CC(C)(C)CN(C(=O)CCC(=O)NCC1CCCCC1)c1ccc(Cl)cc1C(O)c1ccccc1Cl (configuration not stated) | pIC50 | 5.59 |
| CC(C)(C)CN(C(=O)CCC(=O)N1CCC(C(=O)O)CC1)c1ccc(Cl)cc1C(O)c1cccc2c1OCCO2 (configuration not stated) | pIC50 | 6.64 |

**Query** Give its pIC50 value. Item: CCCCNC(=O)C1CCN(C(=O)CCC(=O)N(CC(C)(C)C)c2ccc(Cl)cc2C(O)c2ccccc2Cl)CC1 (configuration not stated)
**Result** 5.70

**Query** Give its pIC50 value. Item: COc1cccc(C(O)c2cc(Cl)ccc2N(CC(C)(C)C)C(=O)CCC(=O)N2CCCC(C(=O)O)C2)c1OC (configuration not stated)
**Result** 5.82

**Query** Give its pIC50 value. Item: CC(C)(C)CN(C(=O)CCC(=O)N1CCC(C(=O)O)CC1)c1ccc(Cl)cc1C(O)c1ccccc1Cl (configuration not stated)
**Result** 6.60

**Query** Give its pIC50 value. Item: CC(C)(C)CN(C(=O)CCC(=O)N1CCCC(C(=O)O)C1)c1ccc(Cl)cc1C(O)c1cccc2c1OCCO2 (configuration not stated)
**Result** 6.77

**Query** Give its pIC50 value. Item: COc1ccccc1C(O)c1cc(Cl)ccc1N(CC(C)(C)C)C(=O)CCC(=O)N1CCC(C(=O)O)CC1 (configuration not stated)
**Result** 6.22

**Query** Give its pIC50 value. Item: CC(C)(C)CN(C(=O)CCC(=O)N1CCCC(C(=O)O)C1)c1ccc(Cl)cc1C(O)c1cccc(F)c1Cl (configuration not stated)
**Result** 5.89
